Target: Adenosine receptor A2b (Homo sapiens) (UniProt P29275)
Test: Displacement of [3H]PSB-603 from recombinant human adenosine receptor A2b expressed in CHO cell membranes at 1 uM
We'd kindly ask you to apply these inhibition classes: 0: < 4%; 1: ≥ 4% and < 30%; 2: ≥ 30%

CCN(CC)CCOc1ccc(CCN2CCn3c(nc4c3c(=O)n(C)c(=O)n4C)C2)cc1
1
CCCn1c(=O)c2c(nc3n2CCCN3CCc2ccc(OCCN(CC)CC)cc2)n(CCC)c1=O
2
Cn1c(=O)c2c(nc3n2CCCN3CCc2ccc(OCCN3CCCCC3)cc2)n(C)c1=O
0
CCCn1c(=O)c2c(nc3n2CCCN3CCc2ccc(OCCN3CCOCC3)cc2)n(CCC)c1=O
2
CCCn1c(=O)c2c(nc3n2CCCN3c2ccc(OCCN(CC)CC)cc2)n(CCC)c1=O
1
CCCCn1c(=O)c2c(nc3n2CCCN3c2ccc(OCCN(CC)CC)cc2)n(CCCC)c1=O
1
Cn1c(=O)c2c(nc3n2CCCN3c2ccc(OCCN3CCCC3)cc2)n(C)c1=O
0
CCCCn1c(=O)c2c(nc3n2CCCN3c2ccc(OCCN3CCCC3)cc2)n(CCCC)c1=O
2

----------
pKi: −log10 of the molar value.
The following compounds have recorded pKi on Adenosine receptor A2a (Rattus norvegicus, UniProt P30543).
Sequence (P30543 whole entry): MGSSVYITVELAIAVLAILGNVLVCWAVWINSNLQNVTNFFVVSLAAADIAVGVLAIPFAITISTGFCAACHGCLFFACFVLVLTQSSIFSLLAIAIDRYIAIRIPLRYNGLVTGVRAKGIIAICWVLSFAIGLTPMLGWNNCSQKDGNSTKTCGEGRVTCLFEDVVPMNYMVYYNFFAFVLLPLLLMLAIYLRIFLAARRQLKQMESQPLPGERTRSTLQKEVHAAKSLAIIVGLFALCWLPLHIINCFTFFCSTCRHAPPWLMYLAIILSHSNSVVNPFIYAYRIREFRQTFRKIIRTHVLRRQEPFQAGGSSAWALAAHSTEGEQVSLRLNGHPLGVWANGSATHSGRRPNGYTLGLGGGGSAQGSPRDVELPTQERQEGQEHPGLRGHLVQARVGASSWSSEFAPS
readout: pKi

CCCCn1c(=O)c2c(nc3n2CCCN3CCc2ccc(O)cc2)n(CCCC)c1=O
6.29
CCCCn1c(=O)c2c(nc3n2CCCN3c2ccc(OCCN(C)C)cc2)n(CCCC)c1=O
5.98
CCN(CC)CCOc1ccc(CCN2CCn3c(nc4c3c(=O)n(C)c(=O)n4C)C2)cc1
5.11
CCCCn1c(=O)c2c(nc3n2CCCN3CCc2ccc(OCCN3CCOCC3)cc2)n(CCCC)c1=O
5.86
CN(C)CCOc1ccc(CCN2CCn3c(nc4c3c(=O)n(C)c(=O)n4C)C2)cc1
5.19
CCCn1c(=O)c2c(nc3n2CCCN3c2ccc(O)cc2)n(CCC)c1=O
6.11
Cn1c(=O)c2c(nc3n2CCCN3CCc2ccc(OCCN3CCCCC3)cc2)n(C)c1=O
6.19

----------
Experiment: Solubility of compound in water at 20 degC by UV-spectroscopic analysis
Type: physicochemical
readout: solubility (µg/mL)

COc1ccc(N2CCCn3c2nc2c3c(=O)n(C)c(=O)n2C)cc1
51
CCCCn1c(=O)c2c(nc3n2CCCN3c2ccc(OCCN(C)C)cc2)n(CCCC)c1=O
255
COc1ccc(CCN2CCCn3c2nc2c3c(=O)n(C)c(=O)n2C)cc1
63
CCCCn1c(=O)c2c(nc3n2CCCN3CCc2ccc(OCCN(CC)CC)cc2)n(CCCC)c1=O
974
CCCn1c(=O)c2c(nc3n2CCCN3c2ccc(OCCN(CC)CC)cc2)n(CCC)c1=O
260
CCN(CC)CCOc1ccc(CCN2CCCn3c2nc2c3c(=O)n(C)c(=O)n2C)cc1
709

----------
Biological target: Adenosine receptor A2b (Homo sapiens, UniProt P29275)
Sequence (P29275 whole entry): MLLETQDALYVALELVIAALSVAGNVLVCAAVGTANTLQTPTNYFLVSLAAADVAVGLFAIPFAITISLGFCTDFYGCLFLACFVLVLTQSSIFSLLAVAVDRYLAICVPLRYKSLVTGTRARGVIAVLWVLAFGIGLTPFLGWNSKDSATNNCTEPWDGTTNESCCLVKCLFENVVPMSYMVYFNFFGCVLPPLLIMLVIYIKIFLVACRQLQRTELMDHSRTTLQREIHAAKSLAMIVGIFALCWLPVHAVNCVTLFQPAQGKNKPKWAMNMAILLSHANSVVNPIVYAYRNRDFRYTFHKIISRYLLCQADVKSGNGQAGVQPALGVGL
Assay: Displacement of [3H]PSB-603 from recombinant human adenosine receptor A2b expressed in CHO cell membranes
readout: Ki

CCCCn1c(=O)c2c(nc3n2CCCN3CCc2ccc(OCCN(CC)CC)cc2)n(CCCC)c1=O
109 nM
CCn1c(=O)c2c(nc3n2CCCN3CCc2ccc(O)cc2)n(CC)c1=O
> 500 nM
Cn1c(=O)c2c(nc3n2CCCN3CCc2ccc(OCCN3CCCCC3)cc2)n(C)c1=O
> 1000 nM
CCCCn1c(=O)c2c(nc3n2CCCN3c2ccc(OCCN3CCOCC3)cc2)n(CCCC)c1=O
> 1000 nM
CCn1c(=O)c2c(nc3n2CCCN3CCc2ccc(OCCN3CCOCC3)cc2)n(CC)c1=O
> 1000 nM
CCCn1c(=O)c2c(nc3n2CCCN3c2ccc(OCCN3CCCCC3)cc2)n(CCC)c1=O
> 1000 nM
